Test System: Cytochrome P450 2B6 (Homo sapiens, UniProt P20813)
Sequence (P20813 whole entry): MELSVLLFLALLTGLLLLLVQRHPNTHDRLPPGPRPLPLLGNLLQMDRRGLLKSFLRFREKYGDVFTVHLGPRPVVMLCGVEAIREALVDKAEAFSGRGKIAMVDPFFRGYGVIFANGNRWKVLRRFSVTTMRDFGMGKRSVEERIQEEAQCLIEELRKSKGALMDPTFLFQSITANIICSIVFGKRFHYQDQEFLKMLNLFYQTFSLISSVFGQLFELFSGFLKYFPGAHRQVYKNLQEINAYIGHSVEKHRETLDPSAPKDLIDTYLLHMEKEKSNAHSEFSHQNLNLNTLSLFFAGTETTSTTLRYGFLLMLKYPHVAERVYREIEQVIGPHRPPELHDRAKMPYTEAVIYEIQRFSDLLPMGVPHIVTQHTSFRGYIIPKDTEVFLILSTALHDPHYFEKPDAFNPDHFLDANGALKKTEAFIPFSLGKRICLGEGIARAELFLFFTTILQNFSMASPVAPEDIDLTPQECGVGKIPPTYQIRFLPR
pIC50: −log10 of the molar value.
Readout Label: pIC50

Value wanted: pIC50 (Cytochrome P450 2B6 (Homo sapiens, UniProt P20813)) of entry `Nc1nc(-c2cccc(-n3ccc4cc(C5CC5)cc(F)c4c3=O)c2CO)c2cc(C3=CCN(C4COC4)CC3)[nH]c2n1`
< 5.00
